- Test system: P. falciparum Dd2 (PfLuc) line expressing firefly luciferase, asexual blood stage
- MEASUREMENT_DESCRIPTION: microbe, parasite or virus in culture
- Assay type: cell-based, Plasmodium falciparum
- REPORTED_CONDITIONS: Plasmodium falciparum, DD2, read-out: CDD P. falciparum Luciferase ABS 11-pt Reconfirmation Dose Response (48hr): IC50 (μM); 11-pt dose response, 48hr
QUANTITY: IC50 (µM)
The reply should contain only the number, in µM.

Problem: # input molecule: CCN1CC(c2ccccc2)CC2(CCN(Cc3ncc[nH]3)CC2)C1 (stereo not drawn) [DDD01246660] ; wanted: its IC50
Result: 7.46

Problem: Which IC50 is listed for CC[C@H]1CN2CC[C@H]1C[C@@H]2CNCc1ccc(OC(F)(F)F)cc1 [DDD01025218] ?
Result: 2.91

Problem: Quick one: IC50 of Cc1cccc(C2(NCCCS(C)(=O)=O)CCCC2)c1 [DDD01078804] ?
Result: 12.1

Problem: # input molecule: COc1cccc(CNCc2ccc(F)c(Cl)c2)c1O [DDD01038250] ; wanted: its IC50
Result: 3.18

Problem: Requested field: IC50. Item: Cc1cc(C2CCCN(CC(=O)Nc3nc4c(s3)CCC4)C2)n[nH]1 (stereo not drawn) [DDD01079504]
Result: 0.456

Problem: Given the molecule CCCOc1ccc2ccccc2c1CN1CC[C@@]2(O)CCNC[C@H]2C1 [DDD01246029] , what is its reported IC50?
Result: 2.85

Problem: Request the reported IC50 associated with Cc1ncc(CN(Cc2ccccn2)Cc2ccccc2Cl)n1C [DDD01058742]
Result: 3.44

Problem: What value of IC50 has been recorded for this entry: Cc1ccc(CN2CCC3(CC2)CCN(Cc2ccco2)CC3)cc1 [DDD01031591]
Result: 7.27

----------
- MEASUREMENT_DESCRIPTION: HepG2 cytotoxicity screening (CellTiter-Glo)
- REPORTED_CONDITIONS: human, uninfected HepG2-A16-CD81 (EGFP) hepatocytes
QUANTITY: inhibition at 2 µM (%)
Response body: numeric value in %, unit text excluded.

Problem: Given the entry NC(=O)CCn1cc(CNCc2csc(N)n2)c2ccccc21 [UCSD-0835992] , report its measured inhibition at 2 µM.
Result: 9.68

Problem: I'd like to know its inhibition at 2 µM. The molecule in question is CCOc1ccc(CN2CCCC(c3cc4ncccc4[nH]3)C2)cc1 (centres unmarked) [UCSD-0798855]
Result: 9.74

Problem: May I ask what inhibition at 2 µM has been recorded for CCc1nc(CN2CCCN(c3ncnc4ccccc34)CC2)no1 [UCSD-0620461] ?
Result: 6.37

Problem: # input molecule: O=C(c1cnc(OCC(F)(F)F)c(Cl)c1)N1CCc2ccc(O)cc2C1 [UCSD-0809130] ; wanted: its inhibition at 2 µM
Result: -5.64

Problem: Suppose we examine the molecule Cc1nc(C)c(CN2CCOC[C@H](Oc3ccccc3)C2)s1 [UCSD-0784893] ; what inhibition at 2 µM value has been reported?
Result: 25.2

----------
- Tested on: P. falciparum Dd2 (PfLuc) line expressing firefly luciferase, asexual blood stage
- MEASUREMENT_DESCRIPTION: microbe, parasite or virus in culture
- Assay type: cell-based, Plasmodium falciparum
- REPORTED_CONDITIONS: Plasmodium falciparum, DD2; 11-pt dose response, 96hr; read-out: CDD P. falciparum Luciferase ABS 11-pt Reconfirmation Dose Response (96hr): Maximum inhibition (%)
Kindly state Emax for each of the entries shown.
The answer consists of two parts: a number and, after it, its unit.

Problem: GET /values?readout=Emax&item= COc1cccc(CNCc2ccc(F)cc2Cl)c1O [DDD01038249]
Result: 95.4%

Problem: // lookup Emax for Cc1cc(C)c(N(CC(O)CNCc2ccccc2)S(C)(=O)=O)c(C)c1 (stereo not drawn) [DDD01027603]
Result: 90.9%

Problem: Recorded Emax of CCN(CC)Cc1ccccc1NC(=O)N(C)Cc1ccccc1O [DDD01074443] , please.
Result: 95.8%

Problem: Bench note: what Emax did Fc1ccc(CN2CCC3(CC2)CCN(Cc2nccs2)CC3)cc1 [DDD01031337] show?
Result: 87.9%

Problem: // Emax lookup, key: COCCCN1CCCN(C(C)C(=O)Nc2cccc(I)c2)CC1 (stereo not drawn) [DDD01080015]
Result: 94.8%

Problem: Would you kindly share the measured Emax for Cc1nc(C2CCNCC2)cc(N(C)Cc2cc3cc(F)ccc3[nH]2)n1 [DDD01251474] ?
Result: 100%

Problem: Which Emax value belongs to Cc1ccsc1CN(CCCN(C)C)Cc1ccccn1 [DDD01060996] ?
Result: 82.3%

Problem: Please give the measured Emax for this molecule: COc1ccc(CCC(=O)NCCN2CCC(c3cccs3)CC2)cc1 [DDD01028015]
Result: 86.6%

Problem: What measured Emax goes with CC(C)c1nccc(C2(c3ccccc3Cl)CCNCC2)n1 [DDD01250092] ?
Result: 90.3%

Problem: Could you share which Emax value was measured for CCC(NCc1ccccc1C)c1ccccc1OCC(=O)NC (stereo not drawn) [DDD01075651] ?
Result: 84.1%

Problem: Query (molecule): CCCn1ccnc1CN1CCCC1c1ccccn1 (stereo not drawn) [DDD01250556] ; field requested: Emax
Result: 94.8%

Problem: // lookup Emax for CC(C)CNc1cc(-c2c[nH]nc2C2CCN(C(=O)C3CC3)C2)ccn1 (stereo not drawn) [DDD01057306]
Result: 96.6%

Problem: Name the reported Emax value associated with the molecule Cc1nccn1CCCN1CCCC(c2ccccc2)C1 (stereo not drawn) [DDD01251840]
Result: 99.5%

Problem: Return reported Emax; argument: Cc1ccc(CN2CCC3(CC2)CCN(Cc2ccoc2)CC3)cc1 [DDD01031590]
Result: 99.4%

Problem: Look up Emax for this molecule: c1ccc(C[C@H]2CN(C3CCOCC3)CC[C@H]2OCC2CC2)cc1 [DDD01028772]
Result: 91.3%

Problem: # lookup: Emax of CC(O)CN1CCC(CNCc2cccc(Cl)c2)CC1 (stereo not drawn) [DDD01300263]
Result: 98%

Problem: Name the reported Emax value associated with the molecule Cc1ccccc1N1CCCN(CC2(O)CCCNC2)CC1 (stereo not drawn) [DDD01254676]
Result: 97.2%

Problem: Reported Emax for CC(C)CN1CCCC1c1ccc(C(=O)Nc2cccnc2)s1 (stereo not drawn) [DDD01247321] : what is it?
Result: 99.9%

Problem: Field request: Emax | item: Cc1ccc(C(CCNCCCN(C)C)C2CCOC(C)(C)C2)cc1 (stereo not drawn) [DDD01026662]
Result: 98.8%

Problem: I'd like to know its Emax. The molecule in question is Cc1ccc(-c2ccc(C3CNCCO3)nc2)cc1 (stereo not drawn) [DDD01061024]
Result: 99.5%

Problem: Find the recorded Emax belonging to CC(NCC1CCN(CCO)CC1)c1cccc(Cl)c1 (stereo not drawn) [DDD01073717] and report it.
Result: 99.8%

Problem: // Emax lookup, key: CCc1ccc2nc(NCCCN(CCO)CCO)cc(C)c2c1 [DDD01247914, CCC1=CC=C2N=C(NCCCN(CCO)CCO)C=C(C)C2=C1]
Result: 99.8%

Problem: Endpoint output: Emax of Cc1ccc(C)c(OCCNC(=O)[C@@H]2CCCCN2)c1 [DDD01252936] . Value?
Result: 87.5%

Problem: Return reported Emax; argument: Cc1ccc(CNC2CC3(CCN(CCO)CC3)c3ccccc32)s1 (stereo not drawn) [DDD01082017]
Result: 98%

Problem: GET /values?readout=Emax&item= c1cc(-c2n[nH]cc2-c2ccnc(N3CCCCCC3)n2)ccn1 [DDD01235864]
Result: 93.5%

Problem: Requested field: Emax. Item: CC(C)c1nn(C)c(Cl)c1CNCC(O)c1cccc(F)c1 (stereo not drawn) [DDD01304823]
Result: 98.7%

Problem: Quick check: Emax of Cc1cn2c(n1)C(CNCc1ccc(C)s1)CCC2 (stereo not drawn) [DDD01079169] ?
Result: 100%

Problem: I'd like to know its Emax. The molecule in question is COc1ccc(N2CCCC3(C2)CN(c2nncs2)CCO3)cc1 (stereo not drawn) [DDD01034473]
Result: 97.9%

Problem: Which Emax value belongs to CN1CCC2(CCCN(c3nccc(C(F)(F)F)n3)C2)CC1 [DDD01028783] ?
Result: 84.9%

Problem: Please report the recorded Emax for CCN(Cc1c(F)cccc1Cl)c1cc(C2CCNCC2)nc(C)n1 [DDD01245231] .
Result: 99.8%

Problem: Any idea what Emax was measured for CC[C@H]1CN2CC[C@H]1C[C@@H]2CNCc1ccc(OC(F)(F)F)cc1 [DDD01025218] ?
Result: 100%

Problem: May I ask what Emax has been recorded for Cc1cccc(C)c1Nc1noc2c1CN(C(=O)c1ccn(C)n1)CC2 [DDD01057030] ?
Result: 99.6%

Problem: Param item = CC(C)N(C)Cc1cnc2n1CCN(C(=O)NC1CCCC1)C2 [DDD01085014] ; retrieve measured Emax.
Result: 91%

Problem: Tell me the measured Emax of CN1[C@H](Cn2cccn2)C[C@@H]2CN(Cc3cccs3)CC[C@@H]21 [DDD01032287] , please.
Result: 85.9%

Problem: For the molecule shown here, Nc1nc2c(c(N3CCCC(c4nnc5ccccn45)C3)n1)CCNC2 (stereo not drawn) [DDD01254485] , give the reported Emax.
Result: 95.2%

Problem: Would you mind telling me what Emax value was observed for Cc1ccccc1CNCC(O)c1ccc(OC(C)C)cc1 (stereo not drawn) [DDD01076008] ?
Result: 99.7%

Problem: So what's the measured Emax for this one? Cc1ccc(CN(c2cc(C)nc3nc(C(F)(F)F)nn23)C2CC2)cc1 [DDD01063654]
Result: 99.7%

Problem: Request the reported Emax associated with FC(F)(F)c1cc(C2CCNCC2)nc(-c2ccsc2)n1 [DDD01058935]
Result: 92.1%

Problem: Consider the molecule shown here: Fc1ccccc1C1(CNC2CCOC3(CCOCC3)C2)CCCC1 (stereo not drawn) [DDD01251139] What is its recorded Emax?
Result: 89.3%
